Recorded values, source paper PMC3261798.

assay: Aqueous solubility; assay type: physicochemical; details: aqueous medium with lipophilic solubilizing agents; even in the presence of lipophilic solubilizing agents
measured property: solubility

Looking up COc1ncc2sc3c(c2n1)SCCNC3=O [kmg-NB4-23] , I found its solubility recorded as < 400 µg/mL

====

biological target: PKD1 (Homo sapiens, UniProt Q15139); experiment: Cellular PKD1 inhibition: densitometry of Western blots for PKD1 autophosphorylation at S916 in PMA-stimulated LNCaP cells; format: cell-based; conditions: PKD1 autophosphorylation at S916 in LNCaP cells; mean ± SEM
measured property: pIC50
Scale explanation: pIC50 corresponds to minus log10 of a concentration expressed in moles per litre.

Some solved cases for reference:
>>> print(df.to_string())
              chemical_string  observed_measurement
0   O=C1NCCCc2c1oc1ccc(O)cc21                  4.93
1   O=C1NCCSc2c1sc1ccc(O)cc21                  5.65
2  COc1ccc2sc3c(c2c1)SCCNC3=O                  5.50
3  O=C1NCCCSc2c1sc1ccc(O)cc21                  5.59

Please find the next compound below.
Looking up COc1ncc2sc3c(c2n1)SCCNC3=O , I found its pIC50 recorded as 5.17

====

Where a name gives a salt, the structure may show the parent alone.
measured property: melting point

Some solved cases for reference:
>>> print(df.to_string())
                                   compound  observed_measurement
0     Nc1ccc2sc3c(c2c1)SCCNC3=O [mcf292-03]       198.6 to 199 °C
1   COc1ccc2oc3c(c2c1)CCCNC3=O [kb-NB77-56]         261 to 263 °C
2  O=C1NCCSc2c1sc1cnc(O)nc21 (as salt: hydrochloride) [kmg-NB4-69A]       335.9 °C (dec.)
3  CC(C)(C)[Si](C)(C)Oc1ccc2oc3c(c2c1)CCCNC3=O [kb-NB77-77]         209 to 212 °C
4  CN1CCSc2c(sc3ccc(O)cc23)C1=O [kb-NB165-17]         265 to 268 °C
5  COc1nc(OC)c2sc3c(c2n1)SCCNC3=O [kmg-NB5-13C]         288 °C (dec.)
6  CN1CCCc2c(oc3ccc(O)cc23)C1=O [kb-NB142-25]         282 to 284 °C
7  CC(=O)Oc1ccc2oc3c(c2c1)CCCNC3=O [kb-NB123-36]         196 to 197 °C
8  COc1ccc2oc3c(c2c1)CCCN(C)C3=O [kb-NB96-04]         150 to 151 °C

Please find the next compound below.
Looking up O=C1NCCSc2c1sc1ccc(O)c(I)c21 [kb-NB165-31] , I found its melting point recorded as 128 °C (dec.)

====

Target: PKD1 (Homo sapiens, UniProt Q15139)
Sequence (Q15139 1-912): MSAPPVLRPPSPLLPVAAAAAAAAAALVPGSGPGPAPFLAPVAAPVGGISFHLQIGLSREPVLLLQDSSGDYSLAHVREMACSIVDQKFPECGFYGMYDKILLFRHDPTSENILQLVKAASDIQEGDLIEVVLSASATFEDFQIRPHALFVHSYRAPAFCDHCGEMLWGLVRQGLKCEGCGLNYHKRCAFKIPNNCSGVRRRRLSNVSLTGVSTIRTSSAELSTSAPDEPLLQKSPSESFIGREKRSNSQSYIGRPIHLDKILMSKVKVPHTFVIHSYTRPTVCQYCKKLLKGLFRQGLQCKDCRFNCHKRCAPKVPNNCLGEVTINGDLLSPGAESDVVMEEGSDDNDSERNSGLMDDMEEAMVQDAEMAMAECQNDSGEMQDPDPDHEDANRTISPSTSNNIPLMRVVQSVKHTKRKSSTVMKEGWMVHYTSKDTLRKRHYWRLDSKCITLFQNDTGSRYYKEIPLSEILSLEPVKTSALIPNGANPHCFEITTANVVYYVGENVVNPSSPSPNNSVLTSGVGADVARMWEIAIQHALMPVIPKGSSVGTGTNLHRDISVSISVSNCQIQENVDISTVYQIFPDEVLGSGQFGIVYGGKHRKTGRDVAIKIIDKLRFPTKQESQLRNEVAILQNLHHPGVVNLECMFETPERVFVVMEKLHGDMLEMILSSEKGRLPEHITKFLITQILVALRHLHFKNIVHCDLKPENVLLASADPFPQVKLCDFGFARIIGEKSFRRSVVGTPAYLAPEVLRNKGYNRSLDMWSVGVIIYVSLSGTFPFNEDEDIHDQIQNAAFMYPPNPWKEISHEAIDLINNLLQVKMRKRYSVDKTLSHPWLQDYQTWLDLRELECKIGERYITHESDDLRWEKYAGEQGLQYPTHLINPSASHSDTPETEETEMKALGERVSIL
Experiment: IMAP-based PKD Fluorescence Polarization (FP) assay, automated HTS format
Assay type: biochemical
Details: mean ± SEM, n = number of independent experiments
measured property: pIC50
Scale explanation: pIC50 corresponds to minus log10 of a concentration expressed in moles per litre.

In [3]: df
Out[3]:
                                  compound  observed_measurement
0          CC(=O)Oc1ccc2oc3c(c2c1)CCCNC3=O                  4.07
1  O=C1NCCc2c1oc1ccc(O)cc21 [kb-NB123-23A]                  4.90
2                O=C1NCCSc2c1sc1ccc(O)cc21                  6.15
3          C=CCc1c(O)ccc2oc3c(c12)CCCNC3=O                  5.62
4   O=C1NCCC(=NNc2ccccc2)c2c1oc1ccc(O)cc21                  4.66

Per the reported PKD1 (Homo sapiens, UniProt Q15139) data, Cc1ccc(S(=O)(=O)NN=C2CCNC(=O)c3oc4ccc(O)cc4c32)cc1 has pIC50 of 4.42

Per the reported PKD1 (Homo sapiens, UniProt Q15139) data, COc1ccc2oc3c(c2c1)CCCNC3=O has pIC50 of 5.62

Per the reported PKD1 (Homo sapiens, UniProt Q15139) data, O=C1NCCCc2c1oc1ccc(O)c(F)c21 has pIC50 of 5.89

Per the reported PKD1 (Homo sapiens, UniProt Q15139) data, O=C1NCCCc2c1oc1ccc(O)c(Cl)c21 has pIC50 of 5.85

Per the reported PKD1 (Homo sapiens, UniProt Q15139) data, O=C1NCCC(O)c2c1oc1ccc(O)cc21 (centres unmarked) has pIC50 of 4.62
